- Tested on: NCI-H23 complex spheroids with HUVEC/MSC, viability
- assay summary: Anticancer human tumor NCI-H23 cell line growth inhibition [RAS]; active means viability on the fitted dose curve at most 10% of control; inactive means the rest;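 further: spheroids exposed to compound for 7 days; 100% = DMSO vehicle control viability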
- setup conditions: second compound 0.3 µM; first compound 1 µM
Respond using exactly one of the listed classes: YES for active, NO for inactive

query: Could you kindly confirm the outcome this assay logged for Cc1nc(N2CCC3(CC2)COC(C)C3N)c(CO)nc1Sc1ccnc(N)c1Cl (stereo not drawn) + CCn1c(-c2cccnc2C(C)OC)c2c3cc(ccc31)N1CCOC(CC(NC(=O)C(C(C)C)N(C)C(=O)C3(F)CCN(C(=O)C#CC(C)(C)N(C)C)CC3)C(=O)N3CCCC(N3)C(=O)OCC(C)(C)C2)C1 ?
result: NO

query: // param item: CC1(O)CCCC1n1c(=O)c(C(F)F)cc2cnc(NC3CCN(S(C)(=O)=O)CC3)nc21 (stereo not drawn) + CCn1c(-c2cccnc2C(C)OC)c2c3cc(ccc31)N1CCOC(CC(NC(=O)C(C(C)C)N(C)C(=O)C3(F)CCN(C(=O)C#CC(C)(C)N(C)C)CC3)C(=O)N3CCCC(N3)C(=O)OCC(C)(C)C2)C1 ; yields the recorded call
result: NO

query: Hello, I am checking results. What call was entered for CC(=O)OC12COC1CC(O)C1(C)C(=O)C(O)C3=C(C)C(OC(=O)C(O)C(NC(=O)OC(C)(C)C)c4ccccc4)CC(O)(C(OC(=O)c4ccccc4)C21)C3(C)C (stereo not drawn) + CCn1c(-c2cccnc2C(C)OC)c2c3cc(ccc31)N1CCOC(CC(NC(=O)C(C(C)C)N(C)C(=O)C3(F)CCN(C(=O)C#CC(C)(C)N(C)C)CC3)C(=O)N3CCCC(N3)C(=O)OCC(C)(C)C2)C1 ?
result: YES

###

- Tested on: NCI-H23 complex spheroids with HUVEC/MSC, viability
- assay summary: Anticancer human tumor NCI-H23 cell line growth inhibition [RAS];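 further: spheroids exposed to compound for 7 days; 100% = DMSO vehicle control viability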
- setup conditions: second compound 0.0949 µM; first compound 0.1 µM; stronger effect = lower value
- Source text: RAS pathway inhibitors in Combinations in Complex Spheroids A high-throughput screen of multi-cell type tumor spheroids was designed to identify active combinations of RAS pathway inhibitors and targeted small molecules. Complex spheroids include a stromal component modeled by human endothelial cells (HUVEC) and fibroblasts modeled by human mesenchymal stem cells (MSCs). […] Compounds. […] If the clinical Cmax for an agent had not been determined, the highest concentration tested was 10 microM. […]
readout name: viability, T/C (%)
A number alone suffices; assume %.

query: Entry CC1(O)CCCC1n1c(=O)c(C(F)F)cc2cnc(NC3CCN(S(C)(=O)=O)CC3)nc21 (centres undefined) + CCn1c(-c2cccnc2C(C)OC)c2c3cc(ccc31)N1CCOC(CC(NC(=O)C(C(C)C)N(C)C(=O)C3(F)CCN(C(=O)C#CC(C)(C)N(C)C)CC3)C(=O)N3CCCC(N3)C(=O)OCC(C)(C)C2)C1 , system NCI-H23 complex spheroids with HUVEC/MSC, viability: what viability, T/C was measured?
result: 17.1

query: What is its viability, T/C for NCI-H23 complex spheroids with HUVEC/MSC, viability? Entry: NC1c2ccccc2OC12CCN(c1cnc3c(N4CCCc5ncccc54)n[nH]c3n1)CC2 (centres undefined) + CCn1c(-c2cc(N3CCN(C)CC3)cnc2C(C)OC)c2c3cc(ccc31)-c1csc(n1)CC(NC(=O)C1CC1C)C(=O)N1CCCC(N1)C(=O)OCC(C)(C)C2
result: 9.83

query: # returns recorded viability, T/C (system: NCI-H23 complex spheroids with HUVEC/MSC, viability) for CC(C)n1nc(-c2ccc3oc(N)nc3c2)c2c(N)ncnc21 + CCn1c(-c2cccnc2C(C)OC)c2c3cc(ccc31)N1CCOC(CC(NC(=O)C(C(C)C)N(C)C(=O)C3(F)CCN(C(=O)C#CC(C)(C)N(C)C)CC3)C(=O)N3CCCC(N3)C(=O)OCC(C)(C)C2)C1
result: 10.3

query: viability, T/C of CC(=O)OC12COC1CC(O)C1(C)C(=O)C(O)C3=C(C)C(OC(=O)C(O)C(NC(=O)OC(C)(C)C)c4ccccc4)CC(O)(C(OC(=O)c4ccccc4)C21)C3(C)C (centres undefined) + CCn1c(-c2cccnc2C(C)OC)c2c3cc(ccc31)N1CCOC(CC(NC(=O)C(C(C)C)N(C)C(=O)C3(F)CCN(C(=O)C#CC(C)(C)N(C)C)CC3)C(=O)N3CCCC(N3)C(=O)OCC(C)(C)C2)C1 on NCI-H23 complex spheroids with HUVEC/MSC, viability?
result: 8.9

###

- System: NCI-H23 complex spheroids with HUVEC/MSC, viability
- assay summary: Anticancer human tumor NCI-H23 cell line growth inhibition [RAS];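 further: spheroids exposed to compound for 7 days; 100% = DMSO vehicle control viability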
- setup conditions: second compound 0.1 µM; first compound 0.316 µM; stronger effect = lower value
hey, just use condition met if measured viability, T/C is less than 30%, otherwise condition not met

query: In the record for CC1(O)CCCC1n1c(=O)c(C(F)F)cc2cnc(NC3CCN(S(C)(=O)=O)CC3)nc21 (centres undefined) + C=CC(=O)N1CCN(c2nc(OCC3CCCN3C)nc3c(F)c(-c4nc(N)cc(C)c4C(F)(F)F)c(Cl)cc23)C(C)C1 , is viability, T/C less than 30%?
result: condition met

query: Below 30% on viability, T/C? Entry C[C@@H](NC(=O)c1ncnc(N)c1Cl)c1ncc(C(=O)Nc2cc(C(F)(F)F)c(Cl)cn2)s1 + C=CC(=O)N1CCN(c2nc(OCC3CCCN3C)nc3c(F)c(-c4nc(N)cc(C)c4C(F)(F)F)c(Cl)cc23)C(C)C1
result: condition not met

query: Dear reviewer, please state whether CC(Nc1ccc2c(c1)OCCn1cc(N3C(=O)OCC3C(F)F)nc1-2)C(N)=O (centres undefined) + C#Cc1c(F)ccc2cc(O)cc(-c3ncc4c(N5CC6CCC(C5)N6)nc(OCC56CCCN5CC(F)C6)nc4c3F)c12 has viability, T/C strictly beneath 30%.
result: condition not met

query: For CCC(CC)c1cc(NC2CCC(N)C2)n2nccc2n1 (centres undefined) + C=CC(=O)N1CCN(c2nc(OCC3CCCN3C)nc3c(F)c(-c4nc(N)cc(C)c4C(F)(F)F)c(Cl)cc23)C(C)C1 , is the recorded viability, T/C below the cut-off of 30%?
result: condition not met

query: Identify whether the compound CCN1CCN(Cc2ccc(Nc3ncc(F)c(-c4cc(F)c5nc(C)n(C(C)C)c5c4)n3)nc2)CC1 + C#Cc1c(F)ccc2cc(O)cc(-c3ncc4c(N5CC6CCC(C5)N6)nc(OCC56CCCN5CC(F)C6)nc4c3F)c12 records viability, T/C below 30%.
result: condition not met

query: Decide: viability, T/C of CC(C)NCC(C(=O)N1CCN(c2ncnc3c2C(C)CC3O)CC1)c1ccc(Cl)cc1 (centres undefined) + C#Cc1c(F)ccc2cc(O)cc(-c3ncc4c(N5CC6CCC(C5)N6)nc(OCC56CCCN5CC(F)C6)nc4c3F)c12 strictly below 30%?
result: condition not met

query: Lab note: viability, T/C threshold 30%. Does this compound come in strictly under it? O=C(c1ccc(F)c(F)c1Nc1ccc(I)cc1F)N1CC(O)([C@@H]2CCCCN2)C1 + C=CC(=O)N1CCN(c2nc(OCC3CCCN3C)nc3c(F)c(-c4nc(N)cc(C)c4C(F)(F)F)c(Cl)cc23)C(C)C1
result: condition met

query: Input C[C@@H](NC(=O)c1ncnc(N)c1Cl)c1ncc(C(=O)Nc2cc(C(F)(F)F)c(Cl)cn2)s1 + C#Cc1c(F)ccc2cc(O)cc(-c3ncc4c(N5CC6CCC(C5)N6)nc(OCC56CCCN5CC(F)C6)nc4c3F)c12 ; condition: viability, T/C strictly below 30%. Does it hold?
result: condition not met

query: Check if viability, T/C falls below 30% for CC(=O)OC12COC1CC(O)C1(C)C(=O)C(O)C3=C(C)C(OC(=O)C(O)C(NC(=O)OC(C)(C)C)c4ccccc4)CC(O)(C(OC(=O)c4ccccc4)C21)C3(C)C (centres undefined) + C=CC(=O)N1CCN(c2nc(OCC3CCCN3C)nc3c(F)c(-c4nc(N)cc(C)c4C(F)(F)F)c(Cl)cc23)C(C)C1 .
result: condition met

query: Is viability, T/C strictly under 30% for the entry C=CC(=O)Nc1cc(Nc2nccc(-c3cn(C)c4ccccc34)n2)c(OC)cc1N(C)CCN(C)C + C#Cc1c(F)ccc2cc(O)cc(-c3ncc4c(N5CC6CCC(C5)N6)nc(OCC56CCCN5CC(F)C6)nc4c3F)c12 ?
result: condition not met

query: Quick check: viability, T/C of CCN1CCN(Cc2ccc(Nc3ncc(F)c(-c4cc(F)c5nc(C)n(C(C)C)c5c4)n3)nc2)CC1 + C=CC(=O)N1CCN(c2nc(OCC3CCCN3C)nc3c(F)c(-c4nc(N)cc(C)c4C(F)(F)F)c(Cl)cc23)C(C)C1 under 30%?
result: condition met

query: Problem: For the compound NC1c2ccccc2OC12CCN(c1cnc3c(N4CCCc5ncccc54)n[nH]c3n1)CC2 (centres undefined) + C#Cc1c(F)ccc2cc(O)cc(-c3ncc4c(N5CC6CCC(C5)N6)nc(OCC56CCCN5CC(F)C6)nc4c3F)c12 , is viability, T/C under 30%?
result: condition not met

query: Hi there! Is viability, T/C for Nc1ccn(C2OC(CO)C(O)C2(F)F)c(=O)n1 (centres undefined) + C#Cc1c(F)ccc2cc(O)cc(-c3ncc4c(N5CC6CCC(C5)N6)nc(OCC56CCCN5CC(F)C6)nc4c3F)c12 below 30%, do you know?
result: condition met

query: Does the reported viability, T/C of Cc1nc(N2CCC3(CC2)COC(C)C3N)c(CO)nc1Sc1ccnc(N)c1Cl (centres undefined) + C#Cc1c(F)ccc2cc(O)cc(-c3ncc4c(N5CC6CCC(C5)N6)nc(OCC56CCCN5CC(F)C6)nc4c3F)c12 stay below 30%?
result: condition not met

query: Hello, is viability, T/C of the following compound strictly smaller than 30%? NC1c2ccccc2OC12CCN(c1cnc3c(N4CCCc5ncccc54)n[nH]c3n1)CC2 (centres undefined) + C=CC(=O)N1CCN(c2nc(OCC3CCCN3C)nc3c(F)c(-c4nc(N)cc(C)c4C(F)(F)F)c(Cl)cc23)C(C)C1
result: condition met

query: A record lists Nc1ccn(C2OC(CO)C(O)C2(F)F)c(=O)n1 (centres undefined) + C=CC(=O)N1CCN(c2nc(OCC3CCCN3C)nc3c(F)c(-c4nc(N)cc(C)c4C(F)(F)F)c(Cl)cc23)C(C)C1 . Is its viability, T/C below 30%?
result: condition met

query: Quick check: viability, T/C of CC(Nc1ccc2c(c1)OCCn1cc(N3C(=O)OCC3C(F)F)nc1-2)C(N)=O (centres undefined) + C=CC(=O)N1CCN(c2nc(OCC3CCCN3C)nc3c(F)c(-c4nc(N)cc(C)c4C(F)(F)F)c(Cl)cc23)C(C)C1 under 30%?
result: condition met

Origin of the recorded values: PubChem BioAssay AID2060885
